System: human dermal fibroblast (HDF) cells
Settings: human, 48 h
resultType: Non-Toxic Concentration

Give me Non-Toxic Concentration for each of these molecules, listed below.
1. COC(=O)c1c(-c2ccccc2)oc2cc(O)cc(CNC(C)C)c12
2. CCOC(=O)c1c(-c2ccccc2)oc2cc(O)cc(CN3CCC(NC(C)=O)CC3)c12
3. CCOC(=O)c1c(-c2ccc(O)cc2)oc2cc(O)cc(CN3CCCCC3)c12
4. CCOC(=O)c1c(-c2ccccc2)oc2cc(O)cc(CN3CCC(C#N)CC3)c12
5. CC(C)(C)OC(=O)N1CCN(C(=O)c2c(-c3ccccc3)oc3ccc(O)c(CN4CCCCC4)c23)CC1
6. CCOC(=O)c1c(-c2ccccc2)oc2cc(N)cc(CN3CCCCC3)c12

1. 25 µM
2. 50 µM
3. 100 µM
4. 50 µM
5. 100 µM
6. 100 µM

Form: Entry = `CNC(=O)c1c(-c2ccccc2)oc2cc(O)cc(CN3CCCCC3)c12` | System = human dermal fibroblast (HDF) cells | Non-Toxic Concentration = ____
100 µM

----------
Test system: Mtb strain mc^27000
Experiment: microbe, parasite or virus in culture
Type: cell-based, Mycobacterium tuberculosis
Settings: Mycobacterium tuberculosis, Mtb mc^27000, liquid medium, 96-well plates; read-out: MIC
resultType: MIC (µM)
One number for each entry, in µM.

molecule: CCOC(=O)c1c(-c2ccccc2)oc2ccc(O)c(CCN3CCCC3)c12 [compound 102]
unitDescriptor: µM
experimentalValue: 0.7
--
molecule: CCOC(=O)c1c(-c2ccccc2)oc2ccc(O)c(CCCN3CC[C@@H]3CO)c12 [compound 212]
unitDescriptor: µM
experimentalValue: 1.1
--
molecule: CCOC(=O)c1c(-c2ccccc2)oc2ccc(O)c(CCN3CCC(C#N)CC3)c12 [compound 228]
unitDescriptor: µM
experimentalValue: 5

Field: next molecule
For the molecule CNC(=O)c1c(-c2ccc(O)nc2)oc2cc(O)cc(CN3CCCCC3)c12 [compound 88] , what MIC is on record?
2.8

----------
Would you mind telling me the reported pIC50 of each entry?
Molecular target: Mtb Pks13-TE domain (wild-type) (Mycobacterium tuberculosis, UniProt I6X8D2)
Sequence (I6X8D2 1451-1733): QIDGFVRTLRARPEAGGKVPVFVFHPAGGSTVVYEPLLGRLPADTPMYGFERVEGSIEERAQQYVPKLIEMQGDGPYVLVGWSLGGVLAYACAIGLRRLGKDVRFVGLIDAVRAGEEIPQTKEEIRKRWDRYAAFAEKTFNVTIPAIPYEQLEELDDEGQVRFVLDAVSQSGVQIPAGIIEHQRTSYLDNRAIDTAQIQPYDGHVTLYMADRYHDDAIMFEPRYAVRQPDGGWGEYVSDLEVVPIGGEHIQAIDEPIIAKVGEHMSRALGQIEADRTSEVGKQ
Assay: biochemical
Type: biochemical
Details: Pks13-TE, 20 μM 4-MUH; read-out: IC50
Answers are plain numbers, as −log10 of the molar value.

Take a look at these entries with their results.
compound: CCOC(=O)c1c(-c2ccc(F)cc2)oc2cc(O)cc(CN3CCCCC3)c12 [compound 51]
pIC50: 6.10

compound: CCOC(=O)c1c(-c2ccccc2)oc2ccc(O)c(CN3CCC(O)CC3)c12 [compound 117]
pIC50: 6.74

compound: CCOC(=O)c1c(-c2ccccc2)oc2ccc(O)c(CCCN3CCC3)c12 [compound 165]
pIC50: 6.10

compound: CCOC(=O)c1c(-c2ccccc2)oc2ccc(O)c(CCCN3CCCC3C/C=C/C(=O)NC)c12 (centres unmarked) [compound 181]
pIC50: 5.60

compound: CNC(=O)c1c(-c2ccccc2)oc2ccc(O)c(CN3CCCC(CO)C3)c12 (centres unmarked) [compound 135]
pIC50: 5.70

compound: CC(C)N1Cc2cc(O)cc3oc(-c4ccccc4)c(c23)C1=O [compound 71]
pIC50: 5.05

Give me pIC50 for each of these compounds, listed below.
1. OCc1c(-c2ccccc2)oc2ccc(O)c(CN3CCCCC3)c12 [compound 65]
2. CCOC(=O)c1c(-c2ccccc2)oc2cc(O)cc(CN3CCC(C#N)CC3)c12 [compound 69]
3. CCOC(=O)c1c(-c2ccccc2)oc2ccc(O)c(CC3CCCCC3)c12 [compound 16]

1. 6.62
2. 5.80
3. 4.71

Give me pIC50 for each of these compounds, listed below.
1. CCOC(=O)c1c(-c2ccccc2)oc2ccc(O)c(CCN3CCC(C#N)CC3)c12 [compound 228]
2. CCOC(=O)c1c(-c2ccccc2)oc2cc(O)cc(CN3CCC(NC(C)=O)CC3)c12 [compound 70]

1: 5.44; 2: 5.21

----------
Biological target: Mtb Pks13-TE domain (wild-type) (Mycobacterium tuberculosis)
Assay: biochemical
Type: biochemical
Conditions: Mtb Pks13-TE domain; mean ± s.d. of triplicates; read-out: IC50
resultType: pIC50
Numbers only, as −log10 of the molar value.

Take a look at these entries with their results.
molecule: CCOC(=O)c1c(-c2ccccc2)oc2ccc(O)c(CN3CCCCCC3)c12
pIC50: 6.55
--
molecule: CCOC(=O)c1c(-c2ccccc2)oc2ccc(O)c(CN(C)C)c12
pIC50: 5.80
--
molecule: CCOC(=O)c1c(-c2ccccc2)oc2ccc(O)c(CN3CCCC(C)C3)c12 (centres unmarked)
pIC50: 6.92
--
molecule: CCOC(=O)c1c(-c2ccccc2)oc2ccc(OC)c(CN3CCCCC3)c12
pIC50: 4.45

Field: next molecule
For the molecule `CCOC(=O)c1c(-c2ccc(O)cc2)oc2ccc(O)c(CN3CCCCC3)c12` , what pIC50 is on record?
6.77

----------
Molecular target: Mtb Pks13-TE domain (wild-type) (Mycobacterium tuberculosis)
Assay: biochemical
Type: biochemical
Conditions: Pks13 enzyme inhibition; read-out: Pks13 IC50
Would you mind telling me the reported IC50 of each entry?
Give bare numbers, in nM.

compoundSmiles: CCOC(=O)c1c(-c2cc(F)c(O)c(F)c2)oc2ccc(O)c(CN3CCCCC3)c12
unitDescriptor: nM
experimentalValue: 500
//
compoundSmiles: CCOC(=O)c1c(-c2ccc(C#N)cc2)oc2ccc(O)c(CN3CCCCC3)c12
unitDescriptor: nM
experimentalValue: 270
//
compoundSmiles: CC(C)(C)OC(=O)N1CCN(C(=O)c2c(-c3ccccc3)oc3ccc(O)c(CN4CCCCC4)c23)CC1
unitDescriptor: nM
experimentalValue: 660
//
compoundSmiles: OCc1c(-c2ccccc2)oc2ccc(O)c(CN3CCCCC3)c12
unitDescriptor: nM
experimentalValue: 240
//
compoundSmiles: CCOC(=O)c1c(-c2ccc(F)cc2)oc2cc(O)cc(CCNS(C)(=O)=O)c12
unitDescriptor: nM
experimentalValue: 20000

Give me IC50 for each of these compounds, listed below.
1. CCOC(=O)c1c(-c2ccccc2)oc2cc(O)cc(CN3CCC(NC(C)=O)CC3)c12
2. CCOC(=O)c1c(-c2ccc(O)nc2)oc2ccc(O)c(CN3CCCCC3)c12
3. CNC(=O)c1c(-c2ccc(O)c(F)c2)oc2ccc(O)c(CN3CCCCC3)c12
4. CCOC(=O)c1c(-c2ccccc2)oc2cc(O)cc(CN3CCCCC3)c12
5. CC(=O)NCCNC(=O)c1c(-c2ccccc2)oc2ccc(O)c(CN3CCCCC3)c12

1. 6100
2. 360
3. 330
4. 450
5. 500

----------
Would you mind telling me the reported log10(MIC) of each entry?
Tested on: Mtb strain mc^27000
Experiment: microbe, parasite or virus in culture
Format: cell-based, Mycobacterium tuberculosis
Conditions: Mycobacterium tuberculosis, Mtb mc^27000, liquid medium, 96-well plates; read-out: MIC
Please interpret these as log10 of MIC where MIC is in µM.

Take a look at these entries with their results.
compound: CNC(=O)c1c(-c2ccc(O)cc2)oc2ccc(O)c(CN3CCC(CO)CC3)c12
resultType: log10(MIC)
experimentalValue: 1.60
//
compound: CCOC(=O)c1c(-c2ccc(F)cc2)oc2cc(O)cc(CCNC(C)C)c12
resultType: log10(MIC)
experimentalValue: 0.40
//
compound: CCOC(=O)c1c(-c2ccccc2)oc2ccc(O)c(CCCN3CC[C@H](O)C3)c12
resultType: log10(MIC)
experimentalValue: 1.00

Give me log10(MIC) for each of these compounds, listed below.
1. CCOC(=O)c1c(-c2ccc(C(N)=O)cc2)oc2ccc(O)c(CN3CCCCC3)c12
2. Oc1ccc2[nH]c(-c3ccccc3)nc2c1CN1CCCCC1
3. CNC(=O)c1c(-c2ccc(O)cc2)oc2ccc(O)c(CN3CCCC(CO)C3)c12 (centres unmarked)
4. NC(=O)c1c(-c2ccc(O)cc2)oc2ccc(O)c(CN3CCCCC3)c12
5. CNC(=O)c1c(-c2ccc(O)cc2)oc2ccc(O)c(CNC3CCCC3)c12
6. CNC(=O)c1c(-c2ccccc2)oc2cc(O)cc(CNCCO)c12

1: 0.54; 2: 1.34; 3: 0.70; 4: 0.11; 5: 0.00; 6: 0.95

Give me log10(MIC) for each of these compounds, listed below.
1. CCOC(=O)c1c(-c2ccccc2)oc2ccc(O)c(CCN3CCC(C)CC3)c12
2. CCOC(=O)c1c(-c2ccccc2)oc2ccc(O)c(CN3CCC(O)CC3)c12

[0.36, 0.75]

Give me log10(MIC) for each of these compounds, listed below.
1. CNC(=O)c1c(-c2ccccc2)oc2cc(O)cc(CNC3CCOCC3)c12
2. NC1CCN(C(=O)c2c(-c3ccccc3)oc3ccc(O)c(CN4CCCCC4)c23)CC1

0.90
1.30
